test system: rat adjuvant arthritis model; assay: Paw edema inhibitory action test using rat adjuvant arthritis model; format: in vivo; conditions: po, 504 h; Lewis rat, adjuvant-untreated (secondary inflammation) paw, 10 mg/kg/day orally once a day, 21 days after, average of eight rats; read-out: Paw edema inhibition rate (%)
Measured inhibition in vivo at 10 mg/kg/day by item
The figure you give is taken to be in %; do not add the unit.

Example entries begin here.
>  <chemical_smiles>
O=C(Nc1cc2ccccc2cn1)c1cccnc1SCc1ccncc1

>  <inhibition in vivo at 10 mg/kg/day, %>
27

$$$$
>  <chemical_smiles>
O=C(Nc1ccc(OC(F)(F)F)c(Cl)c1)c1cccnc1SCc1ccncc1

>  <inhibition in vivo at 10 mg/kg/day, %>
39

$$$$
>  <chemical_smiles>
Cc1cc(C)cc(NC(=O)c2cccnc2SCc2cc[n+]([O-])cc2)c1

>  <inhibition in vivo at 10 mg/kg/day, %>
21

$$$$

IN: What does the data say about its inhibition in vivo at 10 mg/kg/day? Entry: O=C(Nc1ccc(SC(F)(F)F)cc1)c1cccnc1SCc1ccncc1
OUT: 22

Entry source: patent US8518973B2
